Data credit: patent US20180112005A1

# SYSTEM_UNDER_TEST: T1, mFLAG-EGF34+NRR-His6, the murine Notch1 NRR immunogen (mouse Notch1 V1307-Q1723) (mouse, UniProt Q01705 1307-1723)
# T1 construct: N-terminal FLAG tag and C-terminal His tag, expressed in 293-F cells; also called mNotch1 NRR; mouse Notch1 NRR
# ASSAY_SUMMARY: SPR (BIAcore-3000), IgG captured on rabbit anti-human IgG, NRR1-ECD protein injected 3.9-500 nM, 25 C, 1:1 Langmuir
# koff per entry
Just the number in s⁻¹, nothing appended.

Here's what some known entries look like.
- BINDER: "Antibody A (antibody, IgG1, V domains shown, also called anti-Notch1 NRR Antibody A; Antibody A-hIgG1) VH: EVQLVESGGGLVQPGGSLRLSCAASGFTFSSYWIHWVRQAPGKGLEWVARINPSNGSTNYADSVKGRFTISADTSKNTAYLQMNSLRAEDTAVYYCARGSGFRWVMDYWGQGTLVTVSS VL: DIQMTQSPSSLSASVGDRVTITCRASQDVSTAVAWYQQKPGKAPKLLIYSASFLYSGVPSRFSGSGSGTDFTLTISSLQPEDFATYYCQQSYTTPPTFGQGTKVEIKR"
  UNIT_SPEC: "s⁻¹"
  koff: 0.021
- BINDER: "Antibody A-2 (antibody, IgG1, V domains shown, also called Antibody A-2-hIgG1) VH: EVQLVESGGGLVQPGGSLRLSCAASGFTFSSYWIHWVRQAPGKGLEWVARINPPNRSNQYADSVKGRFTISADTSKNTAYLQMNSLRAEDTAVYYCARGSGFRWVMDYWGQGTLVTVSS VL: DIQMTQSPSSLSASVGDRVTITCRASQDVSTAVAWYQQKPGKAPKLLIYSASFLYSGVPSRFSGSGSGTDFTLTISSLQPEDFATYYCQQFYTTPSTFGQGTKVEIKR"
  UNIT_SPEC: "s⁻¹"
  koff: 0.00034
- BINDER: "Antibody A-3 (antibody, V domains shown) VH: EVQLVESGGGLVQPGGSLRLSCAASGFTFSSYWIHWVRQAPGKGLEWVARINPANGSTRYADSVKGRFTISADTSKNTAYLQMNSLRAEDTAVYYCARGSGFRWVMDYWGQGTLVTVSS VL: DIQMTQSPSSLSASVGDRVTITCRASQDVSTAVAWYQQKPGKAPKLLIYSASFLYSGVPSRFSGSGSGTDFTLTISSLQPEDFATYYCQQSFSTPATFGQGTKVEIKR"
  UNIT_SPEC: "s⁻¹"
  koff: 0.0012

Now look at this one.
So what's the measured koff for this one? Antibody A-1 (antibody, IgG1, V domains shown, also called Antibody A-1-hIgG1) VH: EVQLVESGGGLVQPGGSLRLSCAASGFTFSSYWIHWVRQAPGKGLEWVARINPPNGSAHYADSVKGRFTISADTSKNTAYLQMNSLRAEDTAVYYCARGSGFRWVMDYWGQGTLVTVSS VL: DIQMTQSPSSLSASVGDRVTITCRASQDVSTAVAWYQQKPGKAPKLLIYSASFLYSGVPSRFSGSGSGTDFTLTISSLQPEDFATYYCQQSYTTPATFGQGTKVEIKR
0.00033
